Measured values drawn from patent US11370774B2 for this set.

Factor D (Homo sapiens (Human), UniProt P00746) measurements of pIC50, listed per entry.
Sequence (P00746 26-253): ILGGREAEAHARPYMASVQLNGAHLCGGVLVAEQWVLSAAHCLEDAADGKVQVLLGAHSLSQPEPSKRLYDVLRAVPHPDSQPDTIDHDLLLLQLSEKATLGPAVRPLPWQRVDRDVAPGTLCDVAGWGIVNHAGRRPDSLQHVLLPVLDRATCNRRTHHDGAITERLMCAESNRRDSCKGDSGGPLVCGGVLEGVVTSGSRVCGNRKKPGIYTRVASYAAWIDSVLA
pIC50: −log10 of the molar value.

In: Give recorded pIC50 with Factor D (Homo sapiens (Human), UniProt P00746) for the following compound: CC(=O)c1cc2cc(COc3ccccc3CC(=O)O)cc(-c3cccc(CN)c3)c2o1 [Compound 252d]
Out: > 6.00

In: Give recorded pIC50 with Factor D (Homo sapiens (Human), UniProt P00746) for the following compound: COCc1cc2cc(COc3ccccc3CC(=O)O)cc(-c3cccc(CN)c3F)c2o1 [Compound 99b]
Out: > 6.00

In: Give recorded pIC50 with Factor D (Homo sapiens (Human), UniProt P00746) for the following compound: NCc1ccc(CC(=O)O)c(OCc2cc(-c3ccnc(CN)c3)c3occc3c2)c1 [Compound 451c]
Out: > 6.00

In: Give recorded pIC50 with Factor D (Homo sapiens (Human), UniProt P00746) for the following compound: CC(=O)Nc1ccc(CC(=O)O)c(OCc2cc(-c3cccc(CN)c3)c3oc(C)cc3c2)c1 [Compound 426c]
Out: > 6.00

In: Give recorded pIC50 with Factor D (Homo sapiens (Human), UniProt P00746) for the following compound: COc1ccc(CC(=O)O)c(OCc2cc(-c3cccc(CN)c3F)c3ccn(C(C)C)c3c2)c1 [Compound 357b]
Out: > 6.00

In: Give recorded pIC50 with Factor D (Homo sapiens (Human), UniProt P00746) for the following compound: CC(C)n1ccc2c(-c3cccc(CN)c3)cc(COc3ccccc3CC(=O)O)cc21 [Compound 109g]
Out: > 6.00

In: Give recorded pIC50 with Factor D (Homo sapiens (Human), UniProt P00746) for the following compound: COc1ccc(CC(=O)O)c(OCc2cc(-c3ccnc(CN)c3F)c3occ(C(F)(F)F)c3c2)c1 [Compound 498c]
Out: > 6.00

In: Give recorded pIC50 with Factor D (Homo sapiens (Human), UniProt P00746) for the following compound: COc1cccc(CC(=O)O)c1OCc1cc(-c2cccc(CN)c2F)c2occc2c1 [Compound 508b]
Out: > 6.00
